Target: Voltage-gated inwardly rectifying potassium channel KCNH2 (Homo sapiens)
Experiment: KCNH2 potassium channel function modulators, cell-based (AID 376);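 also: 0% = buffer alone and 100% = reference blocker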
Conditions: hERG-expressing cells, channel activity single-concentration screen; concentration not given here
Out of some 2,000 compounds screened, about 250 (12%) were called active. The sample as a whole holds a higher share of actives than the screen did.
outcome measure: hERG blockade (%)
Write the value in % as a bare number.

Examples from the recorded data:
compound	system under test	outcome measure	numeric result
NS(=O)(=O)c1cc(C(=O)O)c(Cl)c([N+](=O)[O-])c1Cl	Voltage-gated inwardly rectifying potassium channel KCNH2 (Homo sapiens)	hERG blockade	-6.38
Cc1ccc(S(=O)(=O)NC(CN)C(=O)O)cc1 (centres undefined)	Voltage-gated inwardly rectifying potassium channel KCNH2 (Homo sapiens)	hERG blockade	4.41
CCCCN1CSC(=S)N(Cc2ccccc2)C1	Voltage-gated inwardly rectifying potassium channel KCNH2 (Homo sapiens)	hERG blockade	13.4
CC[N+](C)(CC)CCN1C(=O)c2ccccc2S1(=O)=O	Voltage-gated inwardly rectifying potassium channel KCNH2 (Homo sapiens)	hERG blockade	-0.137
O=[N+]([O-])c1ccc2ncccc2c1CCc1c([N+](=O)[O-])ccc2ncccc12	Voltage-gated inwardly rectifying potassium channel KCNH2 (Homo sapiens)	hERG blockade	2.28

Consider CC1(C)N=C(N)N=C(N)N1c1cccc(OCc2cccc([N+](=O)[O-])c2)c1 . Its measured hERG blockade is -1.1

Consider CC1(C)N=C(N)N=C(N)N1CCCCc1ccccc1 . Its measured hERG blockade is -14.1

Consider Nc1nc(SCCc2ccccc2)c2[nH]cnc2n1 . Its measured hERG blockade is -0.569

Consider CC1Oc2ccc(C(=O)CC(C(=O)O)c3ccc4c(c3)OCO4)cc2O1 (centres undefined) . Its measured hERG blockade is -27.6

Consider Nc1nc(N)c(CCCCc2ccccc2)c(N)n1 . Its measured hERG blockade is 26.6

Consider CC(C(=O)O)C(=Cc1ccc2c(c1)OCO2)C(=O)O (centres undefined) . Its measured hERG blockade is 0.849

Consider Nc1ncnc2c1ncn2C1OC(C(=O)OCCO)C(O)C1O (centres undefined) . Its measured hERG blockade is 1.37

Consider COc1cc(C(=O)O)c([N+](=O)[O-])c(OC)c1OC . Its measured hERG blockade is 23.9

Consider CC(C)C(N)(C(=O)O)c1ccccc1 (centres undefined) . Its measured hERG blockade is -5.81

====

Target: Voltage-gated inwardly rectifying potassium channel KCNH2 (Homo sapiens) (UniProt Q12809)
Sequence (Q12809 whole entry, looked up): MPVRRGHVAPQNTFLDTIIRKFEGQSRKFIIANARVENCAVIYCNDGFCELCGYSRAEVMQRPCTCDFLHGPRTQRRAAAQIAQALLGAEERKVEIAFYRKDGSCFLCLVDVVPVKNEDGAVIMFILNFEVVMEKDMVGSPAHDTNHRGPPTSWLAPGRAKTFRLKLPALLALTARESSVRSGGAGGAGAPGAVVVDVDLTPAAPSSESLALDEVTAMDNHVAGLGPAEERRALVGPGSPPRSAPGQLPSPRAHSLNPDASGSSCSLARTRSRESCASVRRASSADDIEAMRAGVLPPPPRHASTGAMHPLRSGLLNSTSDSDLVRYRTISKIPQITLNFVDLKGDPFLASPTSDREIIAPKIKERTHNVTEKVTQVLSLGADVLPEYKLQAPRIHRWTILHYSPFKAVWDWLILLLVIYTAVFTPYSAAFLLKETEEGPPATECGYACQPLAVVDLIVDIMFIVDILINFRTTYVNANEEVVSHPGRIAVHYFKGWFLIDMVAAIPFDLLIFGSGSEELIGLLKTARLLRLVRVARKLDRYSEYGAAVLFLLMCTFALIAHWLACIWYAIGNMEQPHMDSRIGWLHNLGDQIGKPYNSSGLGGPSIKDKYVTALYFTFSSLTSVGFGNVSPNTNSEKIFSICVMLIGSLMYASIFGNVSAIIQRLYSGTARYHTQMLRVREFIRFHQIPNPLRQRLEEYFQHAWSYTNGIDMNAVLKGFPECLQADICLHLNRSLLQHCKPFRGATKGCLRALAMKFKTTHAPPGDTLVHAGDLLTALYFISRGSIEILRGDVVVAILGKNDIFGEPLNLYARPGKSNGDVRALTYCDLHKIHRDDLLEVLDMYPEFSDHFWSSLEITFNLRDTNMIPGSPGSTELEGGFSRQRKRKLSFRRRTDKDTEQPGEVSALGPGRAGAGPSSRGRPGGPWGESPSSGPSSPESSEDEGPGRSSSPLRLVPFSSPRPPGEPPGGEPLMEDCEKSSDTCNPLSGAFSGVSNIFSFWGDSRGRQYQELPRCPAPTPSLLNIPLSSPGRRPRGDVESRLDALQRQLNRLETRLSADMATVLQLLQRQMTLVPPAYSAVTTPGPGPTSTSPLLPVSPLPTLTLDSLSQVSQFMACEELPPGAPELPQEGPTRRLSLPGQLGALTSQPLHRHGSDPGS
Test: KCNH2 potassium channel function modulators, cell-based (AID 376);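 also: 0% = buffer alone and 100% = reference blocker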
Details: hERG-expressing cells, channel activity single-concentration screen; concentration not given here
Among all 2,000 compounds or so, about 250 (12%) were called active. For the sample, actives were picked, then their nearest neighbours and some compounds at random.
outcome measure: hERG blockade (%)
Write the value in % as a bare number.

Examples from the recorded data:
compound	hERG blockade (%)
Cc1onc(-c2c(F)cccc2Cl)c1C(=O)NC1C(=O)N2C1SC(C)(C)C2C(=O)O (stereo unspecified)	8.23
O=C(O)CSc1nc2ccccc2[nH]1	-15.3

Consider Cc1cc(Cc2cc(C)cc(C(C)(C)C)c2O)c(O)c(Cc2cc(C)cc(C(C)(C)C)c2O)c1 . Its measured hERG blockade is 15.5

Consider CC12CCC(=O)C=C1CCC1C2CCC2(C)C(C(=O)COS(=O)(=O)c3ccc(Br)cc3)CCC12 (stereo unspecified) . Its measured hERG blockade is 17

Consider O=C1C=C(N2CCN(c3ccccn3)CC2)C(=O)c2c(O)ccc(O)c21 . Its measured hERG blockade is 23.2

Consider O=C1c2ccccc2-c2ccc(NC(=O)C3CCCCC3C(=O)O)cc21 (stereo unspecified) . Its measured hERG blockade is 1.13

Consider O=C(O)C(=Cc1ccncc1)c1cccc2ccccc12 . Its measured hERG blockade is 0.772

Consider CC(=O)C1(N=Nc2ccc(S(N)(=O)=O)cc2)CCOC1=O (stereo unspecified) . Its measured hERG blockade is -10.6

Consider CC(OP(=O)(O)O)C(N)C(=O)O (stereo unspecified) . Its measured hERG blockade is -6.12

Consider Cc1cc(C(C)(C)C)c(OCCCN2CCOCC2)c(C(C)(C)C)c1 . Its measured hERG blockade is 20.8
